- Test system: Zymoseptoria tritici
- Experimental details: Leaf blotch of wheat (SEPTTR) disease control on wheat seedlings
- Type: in vivo
- Experimental parameters: HV application at 100 ppm; 1 Day Protectant; wheat leaf blotch
Quantity name: SEPTTR 1DP disease control rating, HV activity

# Compound, Test result
measured = [
    ("CCCOC(CC)C(Oc1ccccc1)C(C)OC(=O)C(CC(C)C)NC(=O)c1nccc(OC)c1OCOC(C)=O (stereo not shown)", "B (≤ 80)"),
    ("CCCOC(CC)C(Oc1ccccc1)C(C)OC(=O)C(C)NC(=O)c1nccc(OC)c1O (stereo not shown) [Cmpd 295]", "D"),
    ("CCCOC(C(C)C)C(C)OC(=O)C(C)NC(=O)c1nccc(OC)c1O (stereo not shown)", "D"),
    ("CCC(CC)C(Oc1ccc(Cl)cc1)C(C)OC(=O)C(CC(C)C)NC(=O)c1nccc(OC)c1O (stereo not shown)", "D"),
    ("CCC(CC)[C@H](Oc1ccc(Cl)cc1)[C@H](C)OC(=O)[C@H](C)NC(=O)c1nccc(OC)c1O", "A (> 80)"),
    ("COc1ccnc(C(=O)N[C@@H](C)C(=O)O[C@@H](C)COCC(C)C)c1O", "B (≤ 80)"),
    ("C=C[C@H](C)[C@@H](Oc1ccccc1)[C@H](C)OC(=O)[C@H](C)NC(=O)c1nccc(OC)c1O", "A (> 80)"),
    ("CC[C@@H](CCOC)[C@@H](Oc1ccccc1)[C@H](C)OC(=O)[C@H](C)NC(=O)c1nccc(OC)c1O", "A (> 80)"),
    ("CCC(CC)[C@@H](OCC1CC1)[C@H](C)OC(=O)[C@H](C)NC(=O)c1nccc(OC)c1O", "B (≤ 80)"),
    ("COc1ccnc(C(=O)N[C@@H](C)C(=O)O[C@@H](C)[C@H](Oc2cccc(Cl)c2)C(C)C)c1O", "A (> 80)"),
    ("COc1ccnc(C(=O)N[C@@H](C)C(=O)O[C@@H](C)[C@@H](COc2ccccc2)Oc2ccccc2)c1O", "B (≤ 80)"),
    ("CCC(CC)[C@@H](Oc1cccc(-c2ccccc2)c1)[C@H](C)OC(=O)[C@@H](NC(=O)c1nccc(OC)c1O)C(C)C", "B (≤ 80)"),
    ("CCC(CC)C(Oc1ccccc1Cl)C(C)OC(=O)C(C)NC(=O)c1nccc(OC)c1O (stereo not shown)", "B (≤ 80)"),
    ("COc1ccnc(C(=O)NC(C)C(=O)OC(C)C(Oc2ccc3ccccc3c2)C(C)C)c1O (stereo not shown)", "D"),
    ("CCC(CC)[C@@H](Oc1ccc(Cl)cc1Cl)[C@H](C)OC(=O)[C@@H](NC(=O)c1nccc(OC)c1O)C(C)C", "B (≤ 80)"),
    ("CCC(CC)C(Oc1ccc(-c2ccccc2)cc1)C(C)OC(=O)C(C)NC(=O)c1nccc(OC)c1O (stereo not shown)", "D"),
    ("CCCC(NC(=O)c1nccc(OC)c1OCOC(C)=O)C(=O)OC(C)C(CCc1ccccc1)OCC(C)C (stereo not shown)", "A (> 80)"),
    ("C=CC[C@@H](OCc1ccccc1)[C@H](C)OC(=O)[C@H](C)NC(=O)c1nccc(OC)c1O", "B (≤ 80)"),
    ("CCCOC(CC)C(Oc1ccccc1)C(C)OC(=O)C(C)(C)NC(=O)c1nccc(OC)c1O (stereo not shown)", "D"),
    ("CCCOC[C@@H](Oc1ccccc1)[C@H](C)OC(=O)[C@H](C)NC(=O)c1nccc(OC)c1O", "D"),
    ("COc1ccnc(C(=O)N[C@@H](C)C(=O)O[C@@H](C)[C@@H](Cc2ccccc2)OCC(C)C)c1O", "A (> 80)"),
    ("CCC(CC)C(Oc1cc(F)ccc1F)C(C)OC(=O)C(C)NC(=O)c1nccc(OC)c1O (stereo not shown) [Cmpd 422]", "A (> 80)"),
    ("CCC(CC)[C@@H](Oc1ccc(Cl)cc1)[C@H](C)OC(=O)[C@@H](NC(=O)c1nccc(OC)c1O)C(C)C", "B (≤ 80)"),
    ("CCC(Cc1ccccc1)C(OCC(C)C)C(C)OC(=O)C(C)NC(=O)c1nccc(OC)c1OCOC(C)=O (stereo not shown)", "A (> 80)"),
    ("CCC(CC)C(Oc1cc(F)ccc1F)C(C)OC(=O)C(C)NC(=O)c1nccc(OC)c1O (stereo not shown) [Cmpd 382]", "D"),
    ("COc1ccnc(C(=O)N[C@@H](C)C(=O)O[C@@H](C)COCc2ccccc2)c1O", "B (≤ 80)"),
    ("CCCOC(CC)C(Oc1ccccc1)C(C)OC(=O)C(C)NC(=O)c1nccc(OC)c1OCOC(C)=O (stereo not shown)", "A (> 80)"),
    ("COc1ccnc(C(=O)NC(C)C(=O)OC(C)C(Oc2ccc(F)cc2)C(C)C)c1O (stereo not shown)", "A (> 80)"),
    ("CCC(CC)C(Oc1cccc(F)c1)C(C)OC(=O)C(CC(C)C)NC(=O)c1nccc(OC)c1O (stereo not shown)", "D"),
    ("COc1ccnc(C(=O)NC(C)C(=O)OC(C)C(Oc2cccc(Cl)c2)C(C)C)c1O (stereo not shown)", "A (> 80)"),
    ("CC[C@H](OC)[C@@H](Oc1ccc(Cl)cc1Cl)[C@H](C)OC(=O)[C@H](C)NC(=O)c1nccc(OC)c1O", "B (≤ 80)"),
]
